Assay info: in vivo
Particulars: female, CD-1, mouse, po, 5 mg/kg, AUC0-inf
Outcome measure: AUC0-inf
Number plus unit, in that order.

QUERY: Reported AUC0-inf, compound CCc1nc2ccc(Cl)cn2c1C(=O)NCc1ccc(C2CC3(C2)CN(S(=O)(=O)C(F)(F)F)C3)cc1 : ____
RESULT: 9500 ng·h/mL

====

Assay info: in vivo
Particulars: CD-1, mouse, iv, 1 mg/kg, t½
Outcome measure: half-life (h)
Write down the numeric answer in h and omit the unit.

QUERY: Reported half-life, compound CCc1nc2ccc(Cl)cn2c1C(=O)NCc1ccc(C2CC3(C2)CN(S(=O)(=O)C(F)(F)F)C3)cc1 : ____
RESULT: 12
